pEC50 for assorted compounds
System: PANC1 cells
Test: CellTiter-Glo cell viability assay, PANC1 cells
Format: cell-based
Conditions: Homo sapiens, PANC-1, PANC1 cells; Compound I-7 present at 4 μM
pEC50 field: float, defined as -log10 of concentration (mol/L).

compound | pEC50
CC[C@@H]1C(=O)N(C)c2cnc(Nc3ccc(C(=O)NC4CCN(C)CC4)cc3OC)nc2N1C1CCCC1 [BI2536] | 8.60

Now for a further compound.
Request body: readout pEC50, system PANC1 cells, query C[C@@H](Oc1cc(-n2cnc3ccc(CN4CCN(C)CC4)cc32)sc1C(N)=O)c1ccccc1C(F)(F)F [GSK461364] . Return the value.
6.70
